- SUBJECT_OF_TEST: High affinity immunoglobulin epsilon receptor subunit alpha (Homo sapiens) (UniProt P12319)
- Sequence (P12319 whole entry): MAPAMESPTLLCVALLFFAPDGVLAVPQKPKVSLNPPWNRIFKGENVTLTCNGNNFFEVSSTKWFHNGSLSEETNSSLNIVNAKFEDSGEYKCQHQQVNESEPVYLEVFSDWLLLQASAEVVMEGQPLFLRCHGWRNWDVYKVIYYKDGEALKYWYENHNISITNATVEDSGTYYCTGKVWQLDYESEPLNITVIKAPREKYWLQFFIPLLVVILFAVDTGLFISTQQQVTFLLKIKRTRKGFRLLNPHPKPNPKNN
- ASSAY_INFO: Inhibition of anti-IgE antibody-stimulated histamine release in human basophills at 10 uM
- Type: functional
QUANTITY_MEASURED: inhibition (%)
Respond numerically; units are % and should not be typed.

Answered examples (6):
[
  {
    "CPD_SMILES": "COc1ccc2c(c1)c(SC)c(C(=O)Nc1nn[nH]n1)n2-c1ccccc1",
    "UNIT_DESCRIPTOR": "%",
    "inhibition": 20
  },
  {
    "CPD_SMILES": "COc1ccc2[nH]c(C(=O)Nc3nn[nH]n3)c(OC(C)C)c2c1",
    "UNIT_DESCRIPTOR": "%",
    "inhibition": 17
  },
  {
    "CPD_SMILES": "COc1ccc2c(c1)c(SC(C)C)c(C(=O)Nc1nn[nH]n1)n2-c1ccccc1",
    "UNIT_DESCRIPTOR": "%",
    "inhibition": 13
  },
  {
    "CPD_SMILES": "COc1ccc2c(c1)c(OCc1ccccc1)c(C(=O)Nc1nn[nH]n1)n2-c1ccccc1",
    "UNIT_DESCRIPTOR": "%",
    "inhibition": 43
  },
  {
    "CPD_SMILES": "COc1ccc2c(c1)c(OC)c(C(=O)Nc1nn[nH]n1)n2-c1ccccc1",
    "UNIT_DESCRIPTOR": "%",
    "inhibition": 46
  },
  {
    "CPD_SMILES": "COc1ccc2c(c1)c(OC(C)C)c(C(=O)Nc1nn[nH]n1)n2Cc1ccccc1",
    "UNIT_DESCRIPTOR": "%",
    "inhibition": 61
  }
]

**Query** Sample `COc1ccc2c(c1)c(OC(C)C)c(C(=O)Nc1nn[nH]n1)n2C` — what was its inhibition?
**Result** 18

**Query** Sample `COc1ccc2c(c1)c(OC(C)C)c(C(=O)Nc1nn[nH]n1)n2-c1ccccc1` — what was its inhibition?
**Result** 46

---

- SUBJECT_OF_TEST: High affinity immunoglobulin epsilon receptor subunit alpha (Homo sapiens) (UniProt P12319)
- ASSAY_INFO: Inhibition of anti-IgE antibody-stimulated histamine release in human basophills at 10 uM
- Assay type: functional
QUANTITY_MEASURED: inhibition (%)
Respond numerically; units are % and should not be typed.

Answered examples (2):
[
  {
    "CPD_SMILES": "CC(C)Oc1c(C(=O)Nc2nn[nH]n2)n(-c2ccccc2)c2cc(Cl)c(Cl)cc12",
    "inhibition (%)": 40
  },
  {
    "CPD_SMILES": "COc1ccc2c(c1)c(OC(C)C)c(-c1nn[nH]n1)n2-c1ccccc1",
    "inhibition (%)": 25
  }
]

**Query** Sample `CCOc1c(C(=O)Nc2nn[nH]n2)n(Cc2ccccc2)c2ccc(OC)cc12` — what was its inhibition?
**Result** 26

**Query** Sample `CC(C)Oc1c(C(=O)Nc2nn[nH]n2)n(-c2ccccc2)c2ccc(Br)cc12` — what was its inhibition?
**Result** 7

**Query** Sample `CCOc1c(C(=O)Nc2nn[nH]n2)[nH]c2ccc(OC)cc12` — what was its inhibition?
**Result** 7

**Query** Sample `CC(C)Oc1c(C(=O)Nc2nn[nH]n2)n(-c2ccccc2)c2ccc(OCc3ccccc3)cc12` — what was its inhibition?
**Result** 65

**Query** Sample `COc1ccc2c(OC(C)C)c(C(=O)Nc3nn[nH]n3)n(-c3ccccc3)c2c1` — what was its inhibition?
**Result** 24

Each recorded value in this set is attributed to ChEMBL document CHEMBL1124502.
